- System: MIA PaCa-2 human pancreatic cancer
- Measurement description: MTT cell growth inhibition, MIA PaCa2
- Type: cell-based
- Condition set: Homo sapiens, MIA PaCa-2; 24 hours; read-out: IC50 for cell growth inhibition, Pancreas MIA PaCa2
For each of the molecules below, state its pIC50.
In simple prose, pIC50 is minus the logarithm base ten of a concentration in moles per litre.

Request body: readout pIC50, system MIA PaCa-2 human pancreatic cancer, query NC(=S)c1ccc(OC(=O)c2ccccc2OC(=O)CCCO[N+](=O)[O-])cc1 . Return the value.
5.32

Request body: readout pIC50, system MIA PaCa-2 human pancreatic cancer, query O=C(CCCC[C@@H]1CCSS1)Oc1ccccc1C(=O)OCCCCO[N+](=O)[O-] . Return the value.
6.10

Request body: readout pIC50, system MIA PaCa-2 human pancreatic cancer, query O=C(CCCO[N+](=O)[O-])Oc1ccccc1C(=O)Oc1ccc(-c2cc(=S)ss2)cc1 . Return the value.
7.33

Request body: readout pIC50, system MIA PaCa-2 human pancreatic cancer, query O=C(CCC(=O)Oc1ccccc1C(=O)Oc1ccc(-c2cc(=S)ss2)cc1)OCCCCO[N+](=O)[O-] . Return the value.
6.99
